Subject of test: T1, human BR3 extracellular domain (human, UniProt Q96RJ3 1-61)
T1 construct: biotinylated where used as tracer; also called hBR3-ECD; BR3-ECD
Procedure text: BIAcore, Fab over immobilised target
Readout label: pKd
In textbook form, pKd equals minus log to base ten of the concentration in mol/L.

Look over these answered cases.
| Binder | pKd |
| --- | --- |
| chimeric 11G9 Fab (Fab, V domains shown, Fab with murine variable domains; also called Ch 11G9 Fab) VH: DVQLQESGPSLVKPSQTLSLTCSVTGDSITSGYWNWIRKFPGNKLEYMGYISYSGSTYYNPSLKSRISITRDTSKNQFYLQLLSVTTEDTATYYCAGLDGLYWYFDVWGAGTLVTVSS VL: DIVMTQTPLSLPVSLGDQASISCRSSQSLVHSNGNTYLHWYLQKPGQSPKLLIYKVSNRFSGVPDRFSGSGSGTDFTLKISRVEAEDLGVYFCSQSTHVPPFTFGSGT | 7.67 |
| Hu9.1-88 Fab (Fab, V domains shown, Fab) VH: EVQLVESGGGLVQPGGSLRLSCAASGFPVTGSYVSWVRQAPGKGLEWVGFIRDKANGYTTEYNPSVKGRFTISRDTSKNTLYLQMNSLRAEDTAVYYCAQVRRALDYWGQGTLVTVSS VL: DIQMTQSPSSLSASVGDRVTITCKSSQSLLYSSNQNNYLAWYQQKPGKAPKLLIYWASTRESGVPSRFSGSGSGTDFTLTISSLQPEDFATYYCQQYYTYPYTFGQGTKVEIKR | 8.20 |

As a next step, examine the binder that follows.
So, Hu11G9-46 Fab (Fab, V domains shown, Fab) VH: EVQLVESGGGLVQPGGSLRLSCAASGDSITSGYWNWVRQAPGKGLEWVGYISYSGSTYYNPSLKSRFTISRDTSKNTFYLQMNSLRAEDTAVYYCAGLNDLYLYFDVWGQGTLVTVSS VL: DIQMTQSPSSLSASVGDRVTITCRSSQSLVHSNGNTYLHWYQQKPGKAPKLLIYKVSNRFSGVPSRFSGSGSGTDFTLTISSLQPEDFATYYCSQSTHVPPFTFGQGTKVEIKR ? Its pKd was 8.82
